ΔTm overview
Target: EthR protein (Mycobacterium tuberculosis)
Sequence (P9WMC1 whole entry, looked up): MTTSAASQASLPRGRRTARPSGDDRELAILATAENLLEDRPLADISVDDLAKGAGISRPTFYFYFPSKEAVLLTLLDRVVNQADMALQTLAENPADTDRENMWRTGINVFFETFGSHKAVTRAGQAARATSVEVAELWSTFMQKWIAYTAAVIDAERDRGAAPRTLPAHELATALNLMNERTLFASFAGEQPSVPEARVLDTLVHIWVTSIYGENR
Assay: TSA test (Thermal Shift Assay), fluorescence with Sypro Orange; also: test concentration or dose not given here
Type: binding, M. tuberculosis
Settings: melting temperature shift of EthR with ligand vs protein alone
Phrase the answer as number then unit, nothing more needed.

[[record]]
structure_smiles_string = "Cc1nc(-c2ccc(S(=O)(=O)NCC(F)(F)C(F)(F)F)cc2)cs1"
value_observed = "8.6 °C"


Given the compound CCOC(=O)Cc1nc(-c2ccc(C(=O)NCCC(F)(F)F)cc2)cs1 , what is its reported ΔTm?
10.1 °C

Given the compound O=C(NCCC(F)(F)F)c1ccc(-n2cc(CCO)nn2)cc1 , what is its reported ΔTm?
1.2 °C

Given the compound CC(C)OC(=O)Cc1nc(-c2ccc(S(=O)(=O)NCCC(F)(F)F)cc2)cs1 , what is its reported ΔTm?
11.6 °C

Given the compound CC(C)CCCc1nc(-c2ccc(S(=O)(=O)NCCC(F)(F)F)cc2)cs1 , what is its reported ΔTm?
12.4 °C

Given the compound Cc1nc(-c2ccc(S(=O)(=O)NCCC(F)(F)F)cc2)cs1 , what is its reported ΔTm?
8.5 °C

Given the compound Cc1nc(-c2ccc(C(=O)NCCC(F)(F)F)cc2)cs1 , what is its reported ΔTm?
11.4 °C

Given the compound O=C(NCCC(F)(F)F)c1ccc(-c2cscn2)cc1 , what is its reported ΔTm?
8.1 °C

Given the compound Cc1nc(-c2ccc(S(=O)(=O)NCCCC(F)(F)F)cc2)cs1 , what is its reported ΔTm?
6.6 °C

* * *

Target: EthR protein (Mycobacterium tuberculosis)
Experiment: TSA test (Thermal Shift Assay), fluorescence with Sypro Orange; also: test concentration or dose not given here
Assay type: binding, M. tuberculosis
Details: melting temperature shift of EthR with ligand vs protein alone
Returns t if the recorded ΔTm is greater than or equal to 4 °C, and f otherwise.

[[record]]
structure_smiles_string = "O=C(NCCC(F)(F)F)c1ccc(-c2csc(CNS(=O)(=O)c3ccccc3)n2)cc1"
assayed_target = "EthR protein (Mycobacterium tuberculosis)"
label_class = "f"

[[record]]
structure_smiles_string = "O=C(NCCC(F)(F)F)c1ccc(-n2cc(C3CC3)nn2)cc1"
assayed_target = "EthR protein (Mycobacterium tuberculosis)"
label_class = "f"

[[record]]
structure_smiles_string = "CC(C)(C)S(=O)(=O)Cc1nc(-c2ccc(S(=O)(=O)NCCC(F)(F)F)cc2)cs1"
assayed_target = "EthR protein (Mycobacterium tuberculosis)"
label_class = "t"


Threshold query (ΔTm >= 4 °C) on Cc1nc(-c2ccc(C(=O)NCCC(F)(F)F)cc2)c(Cl)s1
t

Threshold query (ΔTm >= 4 °C) on Cc1csc(-c2ccc(S(=O)(=O)NCCC(F)(F)F)cc2)n1
t

Threshold query (ΔTm >= 4 °C) on CC(C)(C)S(=O)(=O)Cc1nc(-c2ccc(C(=O)NCCC(F)(F)F)cc2)cs1
t

Threshold query (ΔTm >= 4 °C) on Cc1nc(-c2ccc(S(=O)(=O)NCC(F)(F)F)cc2)cs1
t

Threshold query (ΔTm >= 4 °C) on CC(C)Cc1nc(-c2ccc(C(=O)NCCC(F)(F)F)cc2)cs1
t

Threshold query (ΔTm >= 4 °C) on CCOC(=O)Cc1nc(-c2ccc(S(=O)(=O)NCCC(F)(F)F)cc2)cs1
f

* * *

log10 of solubility at 24 h overview
Assay: Measurement of the solubility
Type: physicochemical
Conditions: aqueous buffer, kinetic from dmso stock; PBS at pH 7.4, 24 h at AT, LC-MS ratio PBS/MeOH; read-out: Solubilité
Values reflect log10 of reported solubility at 24 h (µM).

[[record]]
structure_smiles_string = "CC(C)OC(=O)Cc1nc(-c2ccc(S(=O)(=O)NCCC(F)(F)F)cc2)cs1"
attribute_measured = "log10 of solubility at 24 h"
value_observed = 0.45

[[record]]
structure_smiles_string = "CCc1cc(-c2nc(-c3ccc(C(=O)NCCC(F)(F)F)cc3)cs2)ccn1"
attribute_measured = "log10 of solubility at 24 h"
value_observed = 0.52


Given the compound Cc1nc(-c2ccc(S(=O)(=O)NCCC(C)C)cc2)cs1 , what is its reported log10 of solubility at 24 h?
1.30

Given the compound Cc1nc(-c2ccc(C(=O)NCCC(F)(F)F)cc2)cs1 , what is its reported log10 of solubility at 24 h?
1.67

* * *

Biological target: EthR protein (interaction with the ethA gene promoter) (Mycobacterium tuberculosis)
Assay: Surface Plasmon Resonance test (SPR): inhibition of EthR binding to the ethA gene promoter
Attribute measured: IC50
Phrase the answer as number then unit, nothing more needed.

Given the molecule Cc1nc(-c2ccc(C(=O)NCCC(F)(F)F)cc2)cs1 , what is its reported IC50?
480 nM

Given the molecule Cc1nc(-c2ccc(S(=O)(=O)NCCC(F)(F)F)cc2)cs1 , what is its reported IC50?
550 nM

Given the molecule CC(C)Cc1nc(-c2ccc(C(=O)NCCC(F)(F)F)cc2)cs1 , what is its reported IC50?
440 nM

Given the molecule Cc1nc(-c2ccc(S(=O)(=O)NCCC(C)C)cc2)cs1 , what is its reported IC50?
4900 nM

* * *

Target: EthR protein (Mycobacterium tuberculosis)
Assay: TSA test (Thermal Shift Assay), fluorescence with Sypro Orange; also: test concentration or dose not given here
Type: binding, M. tuberculosis
Conditions: melting temperature shift of EthR with ligand vs protein alone
Attribute measured: ΔTm (°C)
Your answer should be a plain number; it is taken to be in °C.

As a guide, the following entries are already answered.
[[record]]
structure_smiles_string = "CC(C)CCCc1nc(-c2ccc(C(=O)NCCC(F)(F)F)cc2)cs1"
attribute_measured = "ΔTm"
value_observed = 13.0

[[record]]
structure_smiles_string = "CCCS(=O)(=O)NCc1nc(-c2ccc(C(=O)NCCC(F)(F)F)cc2)cs1"
attribute_measured = "ΔTm"
value_observed = 6.6

[[record]]
structure_smiles_string = "O=C(NCCC(F)(F)F)c1ccc(C#CCNS(=O)(=O)c2ccccc2)cc1"
attribute_measured = "ΔTm"
value_observed = 4.2

[[record]]
structure_smiles_string = "CC(C)CCNS(=O)(=O)c1ccc(-c2csc(CC#N)n2)cc1"
attribute_measured = "ΔTm"
value_observed = 5.3


Given the molecule COC(=O)Cc1nc(-c2ccc(S(=O)(=O)NCCC(F)(F)F)cc2)cs1 , what is its reported ΔTm?
9.5

Given the molecule [N-]=[N+]=Nc1ccc(C(=O)NCCC(F)(F)F)cc1 , what is its reported ΔTm?
6.0

Given the molecule CCc1cc(-c2nc(-c3ccc(C(=O)NCCC(F)(F)F)cc3)cs2)ccn1 , what is its reported ΔTm?
13.3

Given the molecule O=C(NCCC(F)(F)F)c1ccc(-c2csc(-c3ccncc3)n2)cc1 , what is its reported ΔTm?
12.6

Given the molecule CC(C)Cc1cn(-c2ccc(C(=O)NCCC(F)(F)F)cc2)nn1 , what is its reported ΔTm?
4.1

* * *

solubility at 24 h overview
Test: Measurement of the solubility
Assay type: physicochemical
Details: aqueous buffer, kinetic from dmso stock; PBS at pH 7.4, 24 h at AT, LC-MS ratio PBS/MeOH; read-out: Solubilité
Your answer should be a plain number; it is taken to be in µM.

As a guide, the following entries are already answered.
[[record]]
structure_smiles_string = "Cc1nc(-c2ccc(S(=O)(=O)NCCC(F)(F)F)cc2)cs1"
value_observed = 41.4

[[record]]
structure_smiles_string = "CC(C)Cc1nc(-c2ccc(C(=O)NCCC(F)(F)F)cc2)cs1"
value_observed = 4.4


Given the compound O=C(NCCC(F)(F)F)c1ccc(-c2csc(-c3ccncc3)n2)cc1 , what is its reported solubility at 24 h?
29

Measured values drawn from patent US9920042B2 for this set.
